Molecular target: T1, human LAIR1 extracellular domain (ECD) protein with 6 HIS tag at the C-terminus (human, UniProt Q6GTX8 22-165)
T1 construct: Produced recombinantly in HEK293 cells; the whole entry is named here; also called LAIR1 ECD; LAIR1-ECD
T1 chain: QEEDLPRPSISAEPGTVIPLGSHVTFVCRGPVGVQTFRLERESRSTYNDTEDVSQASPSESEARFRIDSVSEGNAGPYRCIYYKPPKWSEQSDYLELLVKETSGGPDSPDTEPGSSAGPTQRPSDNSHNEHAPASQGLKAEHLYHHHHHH
Assay: ELISA, LAIR1 ECD coated
measurement-label: EC50 (read off the curve)

Give the value of EC50 (read off the curve) reported for the following: LA-6 (antibody, V domains shown, Rabbit monoclonal IgG; also called mAb LA-6) VH: EQSVEESGGDLVKPEGSLTLTCTASGFSFSSGYYMCWVRQAPGKGLEWIGCIHSSSGNIYYASWAKGRFTISKTSSTTVDLQLTSLTAADTATYFCARDSEVYGWNPNDLWGPGTLVTVSS VL: ELDMTQTPASVSEPVGGTVTIKCQASQSISSYLAWYQQKPGQRPKLLIYGASNLASGVSSRFKGSRSGTQFTLTITDLECDDAATYYCQCSYYGNSYVGGAFGGGTEVVVK
~10 ng/mL

Give the value of EC50 (read off the curve) reported for the following: LA-141 (antibody, V domains shown, Rabbit monoclonal IgG) VH: QSLEESGGRLVKPDESLTLTCTVSGFSLSSNAMSWVRQAPGKGLEWIGYIYGDGRTFYANWAKGRITISRTSTTVDLKMTSLRTEDTATYFCVKSLILWGPGTLVTISS VL: ELDMTQTPSPVSAAVGGTVTINCQSSHSVYNANQLYWYQQKPGQPPKLLIYDASTLASGVPSRFKGSGSGTQFTLTISGVQCDDAATYYCLGEYSGNIYVFGEGTEVEIN
~10 ng/mL

Give the value of EC50 (read off the curve) reported for the following: LA-151 (antibody, V domains shown, Rabbit monoclonal IgG) VH: SSSVEESGGRLVTPGTPLTLTCTVSGFSLGSYAMGWVRQGPGKGLEWIGAVYGTTGYIYFATWAKGRFTISKTSTTVDLKITSPTTEDTATYFCARGYLTDSIANGFGVWGPGTLVTVSS VL: ELDLTQTPASVSEPVGGTVTIKCQASQTITNRYLAWYQQKPGQPPKLLIYQSSKLASGVSSRFKGSGSGTDFTLTISDLECADAATYYCQCTDYGSTYLGTFGGGTEVEIK
~10 ng/mL
